The measurements presented in this section are drawn from patent US12421240B2.

Below, each entry is listed with its recorded IC50.
# studySystem: human TLR7 (Homo sapiens, UniProt Q9NYK1)
# Sequence (Q9NYK1 27-1049): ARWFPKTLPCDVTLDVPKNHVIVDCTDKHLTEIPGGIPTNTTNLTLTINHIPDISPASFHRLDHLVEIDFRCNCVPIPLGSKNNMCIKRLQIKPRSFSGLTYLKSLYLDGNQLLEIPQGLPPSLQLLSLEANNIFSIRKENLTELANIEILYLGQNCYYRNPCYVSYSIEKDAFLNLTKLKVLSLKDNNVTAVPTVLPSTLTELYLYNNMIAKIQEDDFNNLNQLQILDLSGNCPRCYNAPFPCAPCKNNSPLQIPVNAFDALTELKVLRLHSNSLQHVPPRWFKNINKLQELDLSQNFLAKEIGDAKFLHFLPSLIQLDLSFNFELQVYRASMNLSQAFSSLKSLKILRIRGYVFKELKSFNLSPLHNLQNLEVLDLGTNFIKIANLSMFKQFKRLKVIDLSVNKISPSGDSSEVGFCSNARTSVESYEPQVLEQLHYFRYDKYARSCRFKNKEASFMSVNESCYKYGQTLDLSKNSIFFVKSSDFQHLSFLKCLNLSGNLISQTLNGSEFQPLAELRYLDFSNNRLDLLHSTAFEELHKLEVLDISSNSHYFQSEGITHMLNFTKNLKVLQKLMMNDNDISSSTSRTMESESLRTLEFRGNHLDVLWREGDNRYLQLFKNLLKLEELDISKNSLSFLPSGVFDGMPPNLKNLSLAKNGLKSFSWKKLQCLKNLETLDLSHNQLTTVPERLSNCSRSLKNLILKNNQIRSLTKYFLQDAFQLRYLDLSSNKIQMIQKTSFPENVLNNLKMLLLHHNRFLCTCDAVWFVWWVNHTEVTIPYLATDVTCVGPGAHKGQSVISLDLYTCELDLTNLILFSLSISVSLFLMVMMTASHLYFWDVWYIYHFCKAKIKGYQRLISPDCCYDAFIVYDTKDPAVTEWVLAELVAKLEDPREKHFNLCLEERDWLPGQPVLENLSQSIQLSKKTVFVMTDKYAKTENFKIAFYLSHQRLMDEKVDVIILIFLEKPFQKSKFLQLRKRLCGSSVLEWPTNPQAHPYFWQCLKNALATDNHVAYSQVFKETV
# methodSummary: HEK293-Blue-hTLR-7 cells assay (SEAP reporter, R848 stimulation)
# runParameters: HEK293-Blue-hTLR7 cells, R848 ligand, 20 hrs; read-out: HEK/hTLR7 IC50
// units = nM; emit number, no label

C[C@@H]1CN(c2ccc(C#N)c3ncccc23)C[C@@H]2CCN(Cc3ccc4c(c3)CCNC4)CCN21 [Example 11]; 6.1
C[C@@H]1CN(c2ccc(C#N)c3ncccc23)C[C@@H]2CCN(Cc3ccc(N4CCNCC4)nc3)CCN21 [Example 17]; 1.2
C[C@@H]1CN(c2ccc(C#N)c3ncccc23)C[C@@H]2CCN(Cc3ccc(N4CCNCC4)cn3)CCN21 [Example 19]; 4.8
CO[C@@H]1CN(c2ccc(CN3CC[C@H]4CN(c5ccc(C#N)c6ncccc56)C[C@@H](C)N4CC3)nc2)C[C@H]1N [Example 22]; 4.9
C[C@@H]1CN(c2ccc(C#N)c3ncccc23)C[C@@H]2CCN(Cc3ccc(N4CCOC[C@H](N)C4)cn3)CCN21 [Example 21]; 59.9

Consider the additional compound presented here.
Prompt: For C[C@@H]1CN(c2ccc(C#N)c3ncccc23)C[C@@H]2CCN(c3cc4c(cn3)CNCC4)CCN21 [Example 7] , what is its reported IC50?
Response: 61.3

* * *

# studySystem: human TLR7 (Homo sapiens)
# methodSummary: HEK293-Blue-hTLR-7 cells assay (SEAP reporter, R848 stimulation)
# runParameters: HEK293-Blue-hTLR7 cells, R848 ligand, 20 hrs; read-out: HEK/hTLR7 IC50
# Description: The following tests were carried out in order to determine the activity of the compounds of formula (I), (Ia) or (Ib) in HEK293-Blue-hTLR-7/8/9 cells assay. HEK293-Blue-hTLR-7 Cells Assay: A stable HEK293-Blue-hTLR-7 cell line was purchased from InvivoGen (Cat. #: hkb-htlr7, San Diego, California, USA). These cells were originally designed for studying the stimulation of human TLR7 by monitoring the activation of NF-κB. […]
valueType: log10(IC50) (log10 of the value in µM)
A difference of one corresponds to tenfold IC50; all values are log10 with IC50 in µM.

Record excerpt, results attached:
CO[C@@H]1CN(c2cnc(CN3CC[C@H]4CN(c5ccc(C#N)c6ncccc56)C[C@@H](C)N4CC3)c(F)c2)C[C@H]1N; -2.49
CO[C@@H]1CN(c2cnc(CN3CC[C@H]4CN(c5ccc(C#N)n6nccc56)C[C@@H](C)N4CC3)c(F)c2)C[C@H]1N; -1.45
C[C@@H]1CN(c2ccc(C#N)c3ncccc23)C[C@@H]2CCN(c3ccc4c(n3)CCNC4)CCN21; -1.32

Prompt: For C[C@@H]1CN(c2cc(=O)n(C)c3ncccc23)C[C@@H]2CCN(Cc3ccc4c(c3)CNCC4)CCN21 , what is its reported log10(IC50)?
Response: -1.44

Prompt: Param item: C[C@@H]1CN(c2ccc(C#N)c3ncccc23)C[C@@H]2CCN(Cc3ncc(N4CCNCC4)cn3)CCN21
Response: -1.30

Prompt: Param item: C[C@@H]1CN(c2ccc(C#N)c3ncccc23)C[C@@H]2CCN(c3cnc(N4CCNCC4)nc3)CCN21
Response: -1.23

Prompt: Param item: C[C@@H]1CN(c2ccc(C#N)c3ncccc23)C[C@@H]2CCN(c3ccc([C@H]4CNCCO4)cc3)CCN21
Response: -1.27

Prompt: Param item: C[C@@H]1CN(c2ccc(C#N)c3ncccc23)C[C@@H]2CCN(Cc3cnc(N4CCNCC4)nc3)CCN21
Response: -2.74
